Data credit: paper PMC8126888

# System: Leishmania infantum (MHOM/MA/67/ITMAP-263) intracellular amastigotes in THP-1
# test.protocol: microbe, parasite or virus in culture
# condition.label: THP-1, read-out: L. infantum MHOM/MA/67/ITMAP263 intracellular amastigotes THP-1 cells IC50 (uM)

[
  {
    "molecule": "COc1ccc(C(=O)N2CCOCC2)cc1S(=O)(=O)N(Cc1ccccc1)CC(C)(C)C [DNDI0003407876]",
    "lt.gt.eq": "=",
    "IC50 / µM": 27.5
  },
  {
    "molecule": "CCN(Cc1ccc(F)cc1)S(=O)(=O)c1cc(C(=O)N2CCOCC2)ccc1OC [DNDI0003392124]",
    "lt.gt.eq": ">",
    "IC50 / µM": 64
  },
  {
    "molecule": "COc1ccc(C#N)cc1S(=O)(=O)N(Cc1ccc(C(F)(F)F)nc1)Cc1ccc(C(F)(F)F)nc1 [DNDI0003578377]",
    "lt.gt.eq": ">",
    "IC50 / µM": 64
  },
  {
    "molecule": "O=S1(=O)NCNc2cc(Cl)c(S(=O)(=O)N(Cc3ccccc3)Cc3ccccc3)cc21 [DNDI0003425512]",
    "lt.gt.eq": "=",
    "IC50 / µM": 24.9
  },
  {
    "molecule": "COCCN(Cc1ccccc1)S(=O)(=O)c1ccccc1OC(F)(F)F [DNDI0003392130]",
    "lt.gt.eq": "=",
    "IC50 / µM": 31.2
  },
  {
    "molecule": "CCCCC1Nc2cc(Cl)c(S(N)(=O)=O)cc2S(=O)(=O)N1Cc1ccccc1 (centres unmarked) [DNDI0003392147]",
    "lt.gt.eq": "=",
    "IC50 / µM": 23.4
  },
  {
    "molecule": "COc1ccc(C(=O)N2CCOCC2)cc1S(=O)(=O)N(Cc1ccccc1)Cc1cnc(C(F)(F)F)nc1 [DNDI0003425509]",
    "lt.gt.eq": ">",
    "IC50 / µM": 64
  },
  {
    "molecule": "COc1ccc(C#N)cc1S(=O)(=O)N(Cc1ccccc1)Cc1cnc(C(F)(F)F)nc1 [DNDI0003425527]",
    "lt.gt.eq": "=",
    "IC50 / µM": 61.1
  },
  {
    "molecule": "NS(=O)(=O)c1cc2c(cc1Cl)NCN(Cc1ccccc1)S2(=O)=O [DNDI0003392143]",
    "lt.gt.eq": ">",
    "IC50 / µM": 64
  },
  {
    "molecule": "COCCOCN1CNc2cc(OC)c(S(=O)(=O)N(Cc3ccccc3)Cc3ccccc3)cc2S1(=O)=O [DNDI0003425511]",
    "lt.gt.eq": "=",
    "IC50 / µM": 14.8
  },
  {
    "molecule": "COc1ccc(S(C)(=O)=O)cc1S(=O)(=O)N(Cc1ccccc1)Cc1cc(C(F)(F)F)nn1C [DNDI0003578374]",
    "lt.gt.eq": ">",
    "IC50 / µM": 64
  },
  {
    "molecule": "COc1ccc(S(N)(=O)=O)cc1S(=O)(=O)NCc1ccccc1 [DNDI0003407892]",
    "lt.gt.eq": ">",
    "IC50 / µM": 64
  },
  {
    "molecule": "COc1ccc(S(C)(=O)=O)cc1S(=O)(=O)N(Cc1ccccc1)CC(C)(C)C [DNDI0003425524]",
    "lt.gt.eq": "=",
    "IC50 / µM": 47.7
  },
  {
    "molecule": "COc1ccc(C(=O)N2CCOCC2)cc1S(=O)(=O)N(Cc1ccc(C(F)(F)F)nc1)CC(C)(C)C [DNDI0003407906]",
    "lt.gt.eq": ">",
    "IC50 / µM": 64
  }
]
